// reported pKd per item
Molecular target: Cannabinoid receptor 2 (Homo sapiens)
Sequence (P34972 whole entry): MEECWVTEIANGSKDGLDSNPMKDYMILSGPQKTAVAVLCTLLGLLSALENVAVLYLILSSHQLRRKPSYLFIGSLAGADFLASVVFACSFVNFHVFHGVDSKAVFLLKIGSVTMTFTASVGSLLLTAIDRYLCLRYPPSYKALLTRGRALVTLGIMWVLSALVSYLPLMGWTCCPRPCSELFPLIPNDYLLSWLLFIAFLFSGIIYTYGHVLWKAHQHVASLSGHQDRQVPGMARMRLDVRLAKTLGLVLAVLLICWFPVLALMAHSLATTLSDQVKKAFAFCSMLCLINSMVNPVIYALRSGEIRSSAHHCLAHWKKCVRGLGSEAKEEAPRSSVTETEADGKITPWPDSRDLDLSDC
// pKd here means minus log10 of the molar concentration (mol/L)

COc1cc(C(C)(C)CCCCCCN=[N+]=[N-])cc(OC)c1[C@H]1C=C(CNC(=O)CCCCCCCCNC(=O)c2ccc(=O)n(S(=O)(=O)c3cccc(C(=O)NCC4CN(CCOCCNc5ccc([N+](=O)[O-])c6nonc56)N=N4)c3)c2)[C@H]2C[C@@H]1C2(C)C (stereo partly drawn) [US20250325711, Example 7] : 8.05
COc1cc(C(C)(C)CCCCCCN=[N+]=[N-])cc(OC)c1[C@H]1C=C(CNC(=O)CCCCCCNC(=O)c2ccc(S(=O)(=O)N(CC#N)C(=O)CCC3CN(CCOCCNc4ccc([N+](=O)[O-])c5nonc45)N=N3)cc2)[C@H]2C[C@@H]1C2(C)C (stereo partly drawn) [US20250325711, Example 11] : 6.82

In the following, a different compound is considered.
Entry CCN(CC)c1ccc2c(c1)OC(=O)C(/C=C/c1ccc(S(=O)(=O)[O-])c[n+]1CCCCCC(=O)NCCOCCN1CC(CNC(=O)C3=CC(S(=O)(=O)N4CC(C(=O)NCCCCCCC(=O)NCC5=C[C@H](c6c(OC)cc(C(C)(C)CCCCCCN=[N+]=[N-])cc6OC)[C@@H]6C[C@H]5C6(C)C)C=CC4=O)CC=C3)N=N1)C2 (stereo partly drawn) [US20250325711, Example 5] under Cannabinoid receptor 2 (Homo sapiens) had pKd of 7.23
